TARGET: human TYK2 (JH2domain-pseudokinase) (Homo sapiens (Human))
ASSAY_COMMENT: TYK2 JH2 Domain Binding Assay (KINOMEscan)
MEASURED_ENDPOINT: Kd

Consider the reported Kd for these compounds:
compound="CNc1cc(Nc2cccn(-c3ccc(C)nc3)c2=O)nc2c(C(=O)N[C@H]3CCC[C@H](OC)C3)cnn12 [I-1289]" measured_endpoint=Kd reported_result="1 to 10 nM"
compound="CNc1cc(Nc2cccn([C@@H]3CCC[C@H](O)C3)c2=O)nc2c(C(=O)N[C@H]3CC[C@@H]3OC)cnn12 [I-1191]" measured_endpoint=Kd reported_result="< 0.2 nM"
compound="CNc1cc(-c2ccn(-c3ccccc3)n2)nc2c(C(N)=O)cnn12 [I-39]" measured_endpoint=Kd reported_result="1 to 10 nM"
compound="CNc1cc(-c2cn([C@@H]3CCCOC3)c3ncccc23)nc2c(C(=O)N[C@@H]3COC[C@@H]3O)cnn12 [I-1184]" measured_endpoint=Kd reported_result="< 0.2 nM"
compound="CNc1cc(Nc2cccn(-c3ccc(F)cn3)c2=O)nc2c(C(=O)N[C@H]3C[C@H]3F)cnn12 [I-115]" measured_endpoint=Kd reported_result="< 0.2 nM"

Read the next record carefully.
Just so you know, measured Kd for CNc1cc(Nc2cccc(-c3cnn(C)c3)c2Cl)nc2c(C(N)=O)cnn12 [I-17] came out at < 0.2 nM

###

TARGET: human TYK2 (JH2domain-pseudokinase) (Homo sapiens (Human), UniProt P29597)
Sequence (P29597 556-888): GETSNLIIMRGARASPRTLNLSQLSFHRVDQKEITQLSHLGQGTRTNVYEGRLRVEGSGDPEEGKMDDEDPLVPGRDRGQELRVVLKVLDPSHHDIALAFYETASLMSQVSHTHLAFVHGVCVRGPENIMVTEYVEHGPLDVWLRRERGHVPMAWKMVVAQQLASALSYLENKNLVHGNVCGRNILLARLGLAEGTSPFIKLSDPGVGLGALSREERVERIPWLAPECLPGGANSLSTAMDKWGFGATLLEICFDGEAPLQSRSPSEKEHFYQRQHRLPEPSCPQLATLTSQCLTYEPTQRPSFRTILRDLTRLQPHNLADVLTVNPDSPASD
ASSAY_COMMENT: TYK2 JH2 Domain Binding Assay (KINOMEscan)
pKd: −log10 of the molar value.
MEASURED_ENDPOINT: pKd

Consider the reported pKd for these compounds:
compound="CNc1cc(Nc2cccn(-c3cccc(C(C)(C)O)n3)c2=O)nc2c(C(N)=O)cnn12 [I-37]" target="human TYK2 (JH2domain-pseudokinase) (Homo sapiens (Human), UniProt P29597)" reported_result="> 9.70"
compound="CNc1cc(Nc2cccn([C@@H]3CCC[C@H](OC)C3)c2=O)nc2c(C(=O)N[C@H]3CC[C@@H]3O)cnn12 [I-1055]" target="human TYK2 (JH2domain-pseudokinase) (Homo sapiens (Human), UniProt P29597)" reported_result="9.00 to 9.70"
compound="CNc1cc(Nc2cccnc2OC(F)(F)F)nc2c(C(N)=O)cnn12 [I-91]" target="human TYK2 (JH2domain-pseudokinase) (Homo sapiens (Human), UniProt P29597)" reported_result="> 9.70"
compound="CNc1cc(Nc2cccn([C@H]3CCC[C@@H](C#N)C3)c2=O)nc2c(C(=O)N[C@@H]3C[C@@H]3F)cnn12 [I-1220]" target="human TYK2 (JH2domain-pseudokinase) (Homo sapiens (Human), UniProt P29597)" reported_result="9.00 to 9.70"
compound="CNc1cc(Nc2cccn([C@H]3CC[C@@]4(CCCO4)CC3)c2=O)nc2c(C(=O)NC3CC3)cnn12 [I-910]" target="human TYK2 (JH2domain-pseudokinase) (Homo sapiens (Human), UniProt P29597)" reported_result="> 9.70"
compound="CNc1cc(-c2c[nH]c3c(C4CCOCC4)cc(Cl)cc23)nc2c(C(N)=O)cnn12 [I-190]" target="human TYK2 (JH2domain-pseudokinase) (Homo sapiens (Human), UniProt P29597)" reported_result="> 9.70"
compound="CNc1cc(Nc2cc(F)cnc2OC(C)C)nc2c(C(=O)N[C@H]3C[C@H]3F)cnn12 [I-211]" target="human TYK2 (JH2domain-pseudokinase) (Homo sapiens (Human), UniProt P29597)" reported_result="9.00 to 9.70"
compound="CNc1cc(Nc2cc(F)cn(C3CCCOC3)c2=O)nc2c(C(=O)N[C@@H]3C[C@@H]3F)cnn12 (some centres unmarked) [I-521]" target="human TYK2 (JH2domain-pseudokinase) (Homo sapiens (Human), UniProt P29597)" reported_result="> 9.70"

Form field, pKd with human TYK2 (JH2domain-pseudokinase) (Homo sapiens (Human), UniProt P29597), item CC(C)Oc1ncc(Cl)cc1Nc1cc(N)n2ncc(C(N)=O)c2n1 [I-79] : 9.00 to 9.70

Form field, pKd with human TYK2 (JH2domain-pseudokinase) (Homo sapiens (Human), UniProt P29597), item CNc1cc(Nc2cccn(-c3cnc(C(C)(C)O)cn3)c2=O)nc2c(C(=O)NC3CCC3)cnn12 [I-95] : > 9.70

Form field, pKd with human TYK2 (JH2domain-pseudokinase) (Homo sapiens (Human), UniProt P29597), item CNc1cc(Nc2cccn([C@@H]3CCC[C@H](OC)C3)c2=O)nc2c(C(=O)NCC3(CO)CC3)cnn12 [I-929] : > 9.70

Form field, pKd with human TYK2 (JH2domain-pseudokinase) (Homo sapiens (Human), UniProt P29597), item CNc1cc(Nc2cccnc2OC)nc2c(C(=O)N[C@@H]3CC[C@H]3O)cnn12 [I-396] : > 9.70
